- TARGET_SYSTEM: Bromodomain-containing protein 4 (Homo sapiens, UniProt O60885)
- PROCEDURE_TEXT: Inhibition of BRD4 (unknown origin) by fluorescence polarization assay
pIC50: −log10 of the molar value.
MEASURED_PROPERTY: pIC50

Some solved entries appear below for comparison.
• Cc1noc(C)c1-c1ccc2c(c1)nc(CCc1cccnc1)n2CCN1CCOCC1 = 5.24
• Cc1noc(C)c1-c1ccc2c(c1)nc(CCc1ccc3ccccc3n1)n2CCN1CCOCC1 = 5.31
• Cc1noc(C)c1-c1ccc2c(c1)nc1n2[C@H](CN2CCOCC2)CC1Cc1ccccc1 (single isomer, unassigned; 31) = 5.70
• CCCCOc1ccc(CCc2nc3cc(-c4c(C)noc4C)ccc3n2CCN2CCOCC2)cc1 = 4.95
• Cc1noc(C)c1-c1ccc2c(c1)nc([C@@H]1CCO[C@H]1c1ccccc1)n2CCN1CCOCC1 = 6.31
• Cc1noc(C)c1-c1ccc2c(c1)nc(CCc1ccc(C#N)cc1)n2CCN1CCOCC1 = 5.31
• COc1ccc(CCc2cc3nc(-c4c(C)noc4C)ccc3n2CCN2CCOCC2)cc1 = 4.74
• Cc1noc(C)c1-c1ccc2c(c1)nc(CCc1c[nH]c3ccccc13)n2CCN1CCOCC1 = 5.00

1 = Cc1noc(C)c1-c1ccc2c(c1)nc(CCc1ccc(N(C)C)cc1)n2CCN1CCOCC1
2 = Cc1noc(C)c1-c1ccc2c(c1)nc(CCc1cncc3ccccc13)n2CCN1CCOCC1
3 = CC(=O)Nc1ccc(CCc2nc3cc(-c4c(C)noc4C)ccc3n2CCN2CCOCC2)cc1
4 = COc1ccc(CCc2nc3cc(-c4c(C)noc4C)ccc3n2CCN2CCOCC2)c(OC)c1
**Q:** Falling order of pIC50, please. Kindly provide the labels arranged according to the requested ordering.
**A:** 3, 1, 4, 2
(3: 5.85, 1: 5.37, 4: 5.08, 2: 4.77)

* * *

- PROCEDURE_TEXT: Lipophilicity, log D of the compound at pH 7.4 by shake flask method
- Format: physicochemical
- PROTOCOL_CONDITIONS: buffer
MEASURED_PROPERTY: logD
Give only the figure.

**Q:** Give its logD value. Item: COc1ccc(CCc2cc3nc(-c4c(C)noc4C)ccc3n2CCN2CCOCC2)cc1
**A:** 3.29

* * *

Quick record of IC50 values for CREB-binding protein (Homo sapiens).
MEASURED_PROPERTY: IC50 (nM)

Some solved entries appear below for comparison.
* COc1ccc([C@H]2OCC[C@@H]2c2nc3cc(-c4c(C)noc4C)ccc3n2CCN2CCOCC2)cc1 | 140
* Cc1noc(C)c1-c1ccc2c(c1)nc(CCc1ccc(N)cc1)n2CCN1CCOCC1 | 90
* COc1ccc(CCc2c(C#N)c3cc(-c4c(C)noc4C)ccc3n2CCN2CCOCC2)cc1 | 500
* Cc1noc(C)c1-c1ccc2c(c1)nc(CCc1ccc(OC(C)C)cc1)n2CCN1CCOCC1 | 200

a = Cc1noc(C)c1-c1ccc2c(c1)nc(-c1cnn3c1CCC3)n2CCN1CCOCC1
b = Cc1noc(C)c1-c1ccc2c(c1)nc(CCc1ccncc1)n2CCN1CCOCC1
**Q:** Task for the reader: decide whether a or b has the larger IC50. Kindly state the label of the option you pick.
**A:** b

* * *

- TARGET_SYSTEM: Bromodomain-containing protein 4 (Homo sapiens, UniProt O60885)
- PROCEDURE_TEXT: Inhibition of human BRD4 by fluorescence polarization assay
MEASURED_PROPERTY: pIC50
# reply with the number alone; pIC50 is -log10 of concentration in mol/L

**Q:** Give its pIC50 value. Item: COc1ccc(CCc2nc3cc(-c4c(C)noc4C)ccc3n2C[C@H](C)N2CCOCC2)cc1Cl
**A:** 5.23

* * *

- TARGET_SYSTEM: Bromodomain-containing protein 4 (Homo sapiens, UniProt O60885)
- PROCEDURE_TEXT: Inhibition of BRD4 (unknown origin) by fluorescence polarization assay
MEASURED_PROPERTY: IC50 (µM)

- COc1ccc(CCc2nc3cc(-c4c(C)noc4C)ccc3n2CCN2CCOCC2)cc1OC: 9.4
- CCc1noc(C)c1-c1ccc2c(c1)nc(CCc1ccccc1)n2CCN1CCOCC1: 6
- COc1ccc([C@H]2OCC[C@@H]2c2nc3cc(-c4c(C)noc4C)ccc3n2CCN2CCOCC2)cc1: 9.4
- Cc1noc(C)c1-c1ccc2c(c1)nc(CCc1ccccc1)n2CC(=O)N1CCOCC1: 13.2
- COc1ccccc1CCc1nc2cc(-c3c(C)noc3C)ccc2n1CCN1CCOCC1: 13.9

1 = Cc1noc(C)c1-c1ccc2c(c1)nc(CCc1ccccc1)n2CCN1CCOCC1
2 = Cc1noc(C)c1-c1ccc2c(c1)nc(COc1ccccc1)n2CCN1CCOCC1
3 = CCOc1ccc(CCc2nc3cc(-c4c(C)noc4C)ccc3n2CCN2CCOCC2)cc1
**Q:** Falling order of IC50, please. Kindly provide the labels arranged according to the requested ordering.
**A:** 2, 3, 1

1 = Cc1noc(C)c1-c1ccc2c(c1)nc(CCc1ccncc1)n2CCN1CCOCC1
2 = Cc1noc(C)c1-c1ccc2c(c1)nc(CCc1ccc(OC(F)(F)F)cc1)n2CCN1CCOCC1
**Q:** Identify the entry with the smaller IC50: 1 or 2 . Kindly state the label of the option you pick.
**A:** 1
(1: 4.1 µM, 2: 18.5 µM)

I = CCn1cc(-c2ccc3c(c2)nc(CCc2ccccc2)n3CCN2CCOCC2)ccc1=O
II = Cc1noc(C)c1-c1ccc2c(c1)nc(-c1cnn3c1CCC3)n2CCN1CCOCC1
III = COc1ccc(OCc2nc3cc(-c4c(C)noc4C)ccc3n2CCN2CCOCC2)cc1
**Q:** Which order do these items take when sorted by rising IC50? List them. Kindly provide the labels arranged according to the requested ordering.
**A:** II, I, III

A = Cc1noc(C)c1-c1ccc2c(c1)nc(CCc1ccccn1)n2CCN1CCOCC1
B = COc1cccc(CCc2nc3cc(-c4c(C)noc4C)ccc3n2CCN2CCOCC2)c1
**Q:** Task for the reader: decide whether A or B has the larger IC50. Kindly state the label of the option you pick.
**A:** B

* * *

- Organism: Homo sapiens
- PROCEDURE_TEXT: Selectivity ratio of IC50 for BRD4 (unknown origin) to IC50 for CREBBP (unknown origin)
MEASURED_PROPERTY: Ratio IC50

Some solved entries appear below for comparison.
- Cc1noc(C)c1-c1ccc2c(c1)nc(CCc1ccccc1)n2CCN1CCOCC1: 17
- Cc1noc(C)c1-c1ccc2c(c1)nc(CCc1ccc(OC(C)C)cc1)n2CCN1CCOCC1: 23
- Cc1noc(C)c1-c1ccc2c(c1)nc1n2[C@H](CN2CCOCC2)CC1Cc1ccccc1 (single isomer, unassigned; 31): 4
- COc1ccc(OCc2nc3cc(-c4c(C)noc4C)ccc3n2CCN2CCOCC2)cc1: 10
- Cc1noc(C)c1-c1ccc2c(c1)nc(CCc1cncc3ccccc13)n2CCN1CCOCC1: 7
- CCCOc1ccc(CCc2nc3cc(-c4c(C)noc4C)ccc3n2CCN2CCOCC2)cc1: 62
- COc1cccc(CCc2nc3cc(-c4c(C)noc4C)ccc3n2CCN2CCOCC2)c1: 15
- CCCCCOc1ccc(CCc2nc3cc(-c4c(C)noc4C)ccc3n2CCN2CCOCC2)cc1: 10
- Cc1noc(C)c1-c1ccc2c(c1)nc(CCc1ccncc1)n2CCN1CCOCC1: 10
- CC(=O)Nc1ccc(CCc2nc3cc(-c4c(C)noc4C)ccc3n2CCN2CCOCC2)cc1: 7

A = COc1ccc(CCc2nc3cc(-c4c(C)noc4C)ccc3n2CCN2CCOCC2)c(OC)c1
B = Cc1noc(C)c1-c1ccc2c(c1)nc(-c1cnn3c1CCC3)n2CCN1CCOCC1
**Q:** Identify the entry with the smaller Ratio IC50: A or B . Kindly state the label of the option you pick.
**A:** B

P = Cc1noc(C)c1-c1ccc2c(c1)nc(CCc1cccnc1)n2CCN1CCOCC1
Q = Cc1noc(C)c1-c1ccc2c(c1)nc(CCc1c[nH]c3ccccc13)n2CCN1CCOCC1
**Q:** Identify the entry with the smaller Ratio IC50: P or Q . Kindly state the label of the option you pick.
**A:** P
(P: 7.4, Q: 14)

* * *

- TARGET_SYSTEM: Bromodomain-containing protein 4 (Homo sapiens, UniProt O60885)
- PROCEDURE_TEXT: Inhibition of BRD4 (unknown origin) by fluorescence polarization assay
pIC50: −log10 of the molar value.
MEASURED_PROPERTY: pIC50

• Cc1nc(C)n(-c2ccc3c(c2)nc(CCc2ccccc2)n3CCN2CCOCC2)n1 = < 3.92

**Q:** Give its pIC50 value. Item: COc1ccc(CCc2c(C#N)c3cc(-c4c(C)noc4C)ccc3n2CCN2CCOCC2)cc1
**A:** < 3.92

**Q:** Give its pIC50 value. Item: Cc1noc(C)c1-c1ccc2c(c1)nc1n2[C@H](CN2CCOCC2)CC1Cc1ccccc1 (single isomer, unassigned; 32)
**A:** < 4.10

**Q:** Give its pIC50 value. Item: Cc1noc(C)c1-c1ccc2c(c1)nc(CCc1ccc(OC(C)C)cc1)n2CCN1CCOCC1
**A:** 5.35

**Q:** Give its pIC50 value. Item: COc1ccc(CCc2cc3cc(-c4c(C)noc4C)ccc3n2CCN2CCOCC2)cc1
**A:** < 3.92

**Q:** Give its pIC50 value. Item: CCCCCOc1ccc(CCc2nc3cc(-c4c(C)noc4C)ccc3n2CCN2CCOCC2)cc1
**A:** 5.16

**Q:** Give its pIC50 value. Item: Cc1n[nH]c(C)c1-c1ccc2c(c1)nc(CCc1ccccc1)n2CCN1CCOCC1
**A:** < 5.00

The measured values listed here are drawn from ChEMBL document CHEMBL4011614.
